target: JAK2V617F (Homo sapiens, UniProt O60674, V617F); experiment: JAK2V617F microfluidic kinase assay (Caliper EZ Reader II, FAM labeled peptide substrate); settings: JAK2V617F 2.5 nM, 1 mM ATP
Sequence (O60674 whole entry V617F): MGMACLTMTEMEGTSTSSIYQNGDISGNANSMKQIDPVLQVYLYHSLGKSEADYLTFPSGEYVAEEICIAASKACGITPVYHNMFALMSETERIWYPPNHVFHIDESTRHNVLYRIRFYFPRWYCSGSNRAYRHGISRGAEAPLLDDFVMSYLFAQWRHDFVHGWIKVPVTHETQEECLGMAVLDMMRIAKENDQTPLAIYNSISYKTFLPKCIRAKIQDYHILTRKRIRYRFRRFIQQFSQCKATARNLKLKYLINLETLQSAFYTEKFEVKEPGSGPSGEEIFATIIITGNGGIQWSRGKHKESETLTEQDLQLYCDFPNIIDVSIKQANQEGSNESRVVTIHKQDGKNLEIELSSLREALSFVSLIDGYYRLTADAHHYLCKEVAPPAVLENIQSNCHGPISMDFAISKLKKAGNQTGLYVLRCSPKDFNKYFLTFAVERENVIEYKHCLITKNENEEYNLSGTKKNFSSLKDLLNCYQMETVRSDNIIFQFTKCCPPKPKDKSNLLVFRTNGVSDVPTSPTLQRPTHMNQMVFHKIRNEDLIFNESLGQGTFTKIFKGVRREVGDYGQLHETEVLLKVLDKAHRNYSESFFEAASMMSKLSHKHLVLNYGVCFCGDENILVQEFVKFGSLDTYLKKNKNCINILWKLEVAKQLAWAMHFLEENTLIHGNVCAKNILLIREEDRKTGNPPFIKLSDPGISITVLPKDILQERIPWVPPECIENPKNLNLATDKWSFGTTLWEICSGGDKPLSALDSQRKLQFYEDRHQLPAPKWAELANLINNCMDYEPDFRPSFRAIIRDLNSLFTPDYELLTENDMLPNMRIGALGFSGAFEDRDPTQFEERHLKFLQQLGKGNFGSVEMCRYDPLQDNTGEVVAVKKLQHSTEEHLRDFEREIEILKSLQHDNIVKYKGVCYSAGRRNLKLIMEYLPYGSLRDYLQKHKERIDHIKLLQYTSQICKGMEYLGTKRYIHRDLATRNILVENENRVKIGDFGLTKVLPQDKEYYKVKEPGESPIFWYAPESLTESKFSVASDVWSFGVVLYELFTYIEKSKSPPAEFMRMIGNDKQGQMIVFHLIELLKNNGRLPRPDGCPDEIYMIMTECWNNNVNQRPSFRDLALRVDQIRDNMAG
readout type: IC50 (nM)
Give the number; nM is assumed, so skip it.

Input: For the record Cc1cnc(Nc2cnn(C(C)C(F)(F)F)c2)nc1-c1ccc(C(=O)NCC#N)cc1 (stereo not shown) , what value of IC50 is listed for JAK2V617F (Homo sapiens, UniProt O60674, V617F)?
Output: 119

Input: For the record C[C@@H](C#N)NC(=O)c1ccc(-c2nc(Nc3cnn(C4CCN(C)CC4)c3)ncc2F)cc1 , what value of IC50 is listed for JAK2V617F (Homo sapiens, UniProt O60674, V617F)?
Output: 186

Input: For the record Cc1cnc(Nc2cnn(C)c2)nc1-c1ccc(C(=O)N[C@H]2C[C@@H](C#N)C2)cc1 , what value of IC50 is listed for JAK2V617F (Homo sapiens, UniProt O60674, V617F)?
Output: 796

Input: For the record Cc1cnc(Nc2cnn([C@H]3CC[C@@H](C#N)CC3)c2)nc1-c1ccc(C(=O)NCC#N)cc1 , what value of IC50 is listed for JAK2V617F (Homo sapiens, UniProt O60674, V617F)?
Output: 34.6

###

pIC50: −log10 of the molar value.
Below are pIC50 values recorded for CYP3A4 (Homo sapiens).

Input: Which pIC50 value is on record for Cc1cnc(Nc2cnn(C3CCN(CC#N)CC3)c2)nc1-c1ccc(C(=O)NCC#N)cc1 [Example 1] ?
Output: < 4.30

Input: Which pIC50 value is on record for COC[C@@H](C#N)NC(=O)c1ccc(-c2nc(Nc3cnn(C4CCN(C)CC4)c3)ncc2C)cc1 [Example 213] ?
Output: < 4.30

Input: Which pIC50 value is on record for Cc1cnc(Nc2cnn(C3CCN(C(=O)CO)CC3)c2)nc1-c1ccc(C(=O)N[C@@H](C)C#N)cc1 [Example 119] ?
Output: < 4.30

Input: Which pIC50 value is on record for Cc1cnc(Nc2cnn(C3CCN(CC(F)F)CC3)c2)nc1-c1ccc(C(=O)NCC#N)cc1 [Example 19] ?
Output: < 4.30

Input: Which pIC50 value is on record for CC[C@@H](C#N)NC(=O)c1ccc(-c2nc(Nc3cn[nH]c3)ncc2Cl)cc1 [Example 185] ?
Output: 4.96

Input: Which pIC50 value is on record for CC[C@@H](C#N)NC(=O)c1ccc(-c2nc(Nc3cnn(CCO)c3)ncc2C)cc1 [Example 172] ?
Output: < 4.30

Input: Which pIC50 value is on record for C[C@@H](C#N)NC(=O)c1ccc(-c2nc(Nc3cnn(C4CCNCC4)c3)ncc2Cl)cc1 [Example 165] ?
Output: 4.38

Input: Which pIC50 value is on record for Cc1cnc(Nc2cnn(CCO)c2)nc1-c1ccc(C(=O)N[C@@H](C)C#N)cc1 [Example 200] ?
Output: < 4.30

Input: Which pIC50 value is on record for CC[C@@H](C#N)NC(=O)c1ccc(-c2nc(Nc3cnn(C4CCNCC4)c3)ncc2Cl)cc1 [Example 183] ?
Output: 4.74

###

biological target: JAK1 (Homo sapiens, UniProt P23458); construct: purchased Carna Biosciences; test: JAK1 microfluidic kinase assay (Caliper EZ Reader II, FAM labeled peptide substrate); format: biochemical; conditions: IC50 JAK1 (5 nM) (1 m MATP), JAK1 5 nM, 1 mM ATP
Sequence (P23458 whole entry): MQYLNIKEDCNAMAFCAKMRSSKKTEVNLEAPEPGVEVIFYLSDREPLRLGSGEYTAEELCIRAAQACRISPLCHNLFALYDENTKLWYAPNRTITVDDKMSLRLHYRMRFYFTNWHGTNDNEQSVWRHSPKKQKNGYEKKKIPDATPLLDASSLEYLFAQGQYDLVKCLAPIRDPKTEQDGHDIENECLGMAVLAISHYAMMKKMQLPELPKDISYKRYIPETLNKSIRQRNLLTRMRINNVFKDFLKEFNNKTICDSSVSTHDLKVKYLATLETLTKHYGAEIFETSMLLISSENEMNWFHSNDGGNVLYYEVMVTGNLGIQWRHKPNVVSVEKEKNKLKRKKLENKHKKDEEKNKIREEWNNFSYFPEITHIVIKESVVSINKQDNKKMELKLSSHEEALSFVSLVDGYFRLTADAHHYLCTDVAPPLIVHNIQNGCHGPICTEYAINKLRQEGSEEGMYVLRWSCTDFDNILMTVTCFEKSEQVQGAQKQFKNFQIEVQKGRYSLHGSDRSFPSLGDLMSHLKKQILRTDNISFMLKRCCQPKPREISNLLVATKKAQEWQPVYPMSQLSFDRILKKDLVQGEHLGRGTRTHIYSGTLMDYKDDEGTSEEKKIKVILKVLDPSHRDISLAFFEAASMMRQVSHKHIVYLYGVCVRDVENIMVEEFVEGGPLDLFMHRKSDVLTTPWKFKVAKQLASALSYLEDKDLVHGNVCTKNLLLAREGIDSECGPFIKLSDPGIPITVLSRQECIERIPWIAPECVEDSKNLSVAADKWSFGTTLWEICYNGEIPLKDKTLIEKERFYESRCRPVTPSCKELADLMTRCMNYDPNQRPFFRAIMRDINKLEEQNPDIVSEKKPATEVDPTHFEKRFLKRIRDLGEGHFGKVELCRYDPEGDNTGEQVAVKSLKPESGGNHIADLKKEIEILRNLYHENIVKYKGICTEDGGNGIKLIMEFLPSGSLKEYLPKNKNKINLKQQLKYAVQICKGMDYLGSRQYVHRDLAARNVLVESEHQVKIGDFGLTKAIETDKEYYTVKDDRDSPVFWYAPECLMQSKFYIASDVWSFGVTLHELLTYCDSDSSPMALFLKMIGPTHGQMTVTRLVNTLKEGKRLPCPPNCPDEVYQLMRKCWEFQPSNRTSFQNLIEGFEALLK
pIC50: −log10 of the molar value. Counter-ions that a name gives are not always drawn.
Consider the following partition of reported pIC50 into named classes: band 1: < 7; band 2: ≥ 7 and < 8; band 3: ≥ 8

Input: Which bin should I file Cc1cnc(Nc2cnn(C3CC4CCC(C3)N4CC(F)(F)F)c2)nc1-c1ccc(C(=O)NCC#N)cc1 (stereo not drawn) under?
Output: band 2

Input: Which bin should I file Cc1cnc(Nc2cnn(C3C[C@@H](C)O[C@@H](C)C3)c2)nc1-c1ccc(C(=O)N[C@@H](C)C#N)cc1 (stereo partly drawn) under?
Output: band 2

Input: Which bin should I file CCC[C@@H](C#N)NC(=O)c1ccc(-c2nc(Nc3cnn(C4CCNCC4)c3)ncc2C)cc1 under?
Output: band 3

Input: Which bin should I file CCC[C@@H](C#N)NC(=O)c1ccc(-c2nc(Nc3cnn(CCO)c3)ncc2C)cc1 under?
Output: band 3

Input: Which bin should I file Cc1cnc(Nc2cnn(C3CCNCC3)c2)nc1-c1ccc(C(=O)NCC(N)=O)cc1 [Example 82, hydrochloride] under?
Output: band 1

Input: Which bin should I file Cc1cnc(Nc2cnn(C3CC3)c2)nc1-c1ccc(C(=O)N2CC(C#N)C2)c(F)c1 under?
Output: band 1

Input: Which bin should I file Cc1cnc(Nc2cnn(C3CN(C(=O)C4CC4)C3)c2)nc1-c1ccc(C(=O)N[C@@H](C)C#N)cc1 under?
Output: band 2

Input: Which bin should I file Cc1cnc(Nc2cnn(C3C[C@@H](C)O[C@@H](C)C3)c2)nc1-c1ccc(C(=O)NCC#N)cc1 (stereo partly drawn) under?
Output: band 2

Input: Which bin should I file Cc1cnc(Nc2cnn(C3CC(F)(F)C3)c2)nc1-c1ccc(C(=O)N[C@@H](C)C#N)cc1 under?
Output: band 1

Input: Which bin should I file Cc1cnc(Nc2cnn(C3CC3)c2)nc1-c1ccc(C(=O)N[C@H](C#N)C(C)C)cc1 under?
Output: band 3

Input: Which bin should I file Cc1cnc(Nc2cnn(CC#N)c2)nc1-c1ccc(C(=O)N[C@H](C)C#N)cc1 under?
Output: band 2

Input: Which bin should I file Cc1cnc(Nc2cnn(C3CC3)c2)nc1-c1ccc(C(=O)N[C@@H](C)C#N)c(F)c1 under?
Output: band 2

Input: Which bin should I file CC(C)(C)C(=O)N1CCC(n2cc(Nc3ncc(F)c(-c4ccc(C(=O)NCC#N)cc4)n3)cn2)CC1 under?
Output: band 1

Input: Which bin should I file Cc1cnc(Nc2cnn(C)c2)nc1-c1ccc(C(=O)NCC(C)(C)C#N)cc1 under?
Output: band 2

Input: Which bin should I file Cc1cnc(Nc2cnn(C3CC3)c2)nc1-c1ccc(C(=O)N[C@@H](C)C#N)nc1 under?
Output: band 2

Input: Which bin should I file Cc1cnc(Nc2cnn(C3CCCCC3)c2)nc1-c1ccc(C(=O)N[C@@H](C)C#N)cc1 under?
Output: band 3

Input: Which bin should I file Cc1cnc(Nc2cnn(C3CCN(CCO)CC3)c2)nc1-c1ccc(C(=O)N[C@@H](C)C#N)cc1 under?
Output: band 3

Input: Which bin should I file N#CCNC(=O)c1ccc(-c2nc(Nc3cnn(C4CC4)c3)ncc2Cl)cn1 under?
Output: band 2

Input: Which bin should I file C[C@H](C#N)NC(=O)c1ccc(-c2nc(Nc3cnn(C4CC4)c3)ncc2Cl)cc1 under?
Output: band 2

Input: Which bin should I file CC[C@@H](C#N)NC(=O)c1ccc(-c2nc(Nc3cnn(CCC#N)c3)ncc2C)cc1 under?
Output: band 3

###

experiment: Liver microsomes study, Phase I stability (HLM); assay type: in vitro ADME, human; details: pH 7.4; human liver microsomes 0.5 mg/mL, 1 μM test article; read-out: HLM Clint
microsomal CLint at 1 μM under 7 µL/min/mg gets rule met, anything at or over 7 µL/min/mg gets rule not met.

Input: Lab note: confirm whether the reported microsomal CLint at 1 μM for this compound is below 7 µL/min/mg, equality not counting. compound: Cc1cnc(Nc2cnn(C3C[C@@H](C)O[C@@H](C)C3)c2)nc1-c1ccc(C(=O)N[C@@H](C)C#N)cc1 (stereo partly shown) [Example 73]
Output: rule not met

Input: Lab note: confirm whether the reported microsomal CLint at 1 μM for this compound is below 7 µL/min/mg, equality not counting. compound: N#CCNC(=O)c1ccc(-c2nc(Nc3cnn(C4CC4)c3)ncc2Cl)cc1 [Example 95]
Output: rule not met

Input: Lab note: confirm whether the reported microsomal CLint at 1 μM for this compound is below 7 µL/min/mg, equality not counting. compound: CC[C@@H](C#N)NC(=O)c1ccc(-c2nc(Nc3cnn(C4CC(C)(C)OC(C)(C)C4)c3)ncc2Cl)cc1 [Example 182]
Output: rule not met

Input: Lab note: confirm whether the reported microsomal CLint at 1 μM for this compound is below 7 µL/min/mg, equality not counting. compound: CC(C)(C#N)CNC(=O)c1ccc(-c2nc(Nc3cnn(C4CC4)c3)ncc2Cl)cc1 [Example 123]
Output: rule not met

Input: Lab note: confirm whether the reported microsomal CLint at 1 μM for this compound is below 7 µL/min/mg, equality not counting. compound: C[C@H](C#N)NC(=O)c1ccc(-c2nc(Nc3cnn(C)c3)ncc2Cl)cc1 [Example 97]
Output: rule met

Input: Lab note: confirm whether the reported microsomal CLint at 1 μM for this compound is below 7 µL/min/mg, equality not counting. compound: Cc1cnc(Nc2cnn(C)c2)nc1-c1ccc(C(=O)N[C@H](C)C#N)cc1 [Example 101]
Output: rule met

Input: Lab note: confirm whether the reported microsomal CLint at 1 μM for this compound is below 7 µL/min/mg, equality not counting. compound: Cc1cnc(Nc2cnn(C3CCN(CC#N)CC3)c2)nc1-c1ccc(C(=O)NCC#N)cc1 [Example 1]
Output: rule not met

Input: Lab note: confirm whether the reported microsomal CLint at 1 μM for this compound is below 7 µL/min/mg, equality not counting. compound: Cc1cnc(Nc2cnn(C3C[C@@H](C)O[C@@H](C)C3)c2)nc1-c1ccc(C(=O)NCC#N)cc1 (stereo partly shown) [Example 68]
Output: rule not met

Input: Lab note: confirm whether the reported microsomal CLint at 1 μM for this compound is below 7 µL/min/mg, equality not counting. compound: CO[C@H]1CC[C@H](n2cc(Nc3ncc(C)c(-c4ccc(C(=O)N[C@@H](C)C#N)cc4)n3)cn2)CC1 [Example 91]
Output: rule met

Input: Lab note: confirm whether the reported microsomal CLint at 1 μM for this compound is below 7 µL/min/mg, equality not counting. compound: Cc1cnc(Nc2cnn(CC#N)c2)nc1-c1ccc(C(=O)NCC#N)cc1 [Example 4]
Output: rule met
